target: CFTR-mediated chloride transport in human intestinal epithelial enteroid cells (Homo sapiens); assay: Membrane potential dye, Enteroid Assay A; format: cell-based; settings: percentage of chloride transport of triple combination control (3 μM N-[(6-amino-2-pyridyl)sulfonyl]-6-(3-fluoro-5-isobutoxy-phenyl)-2-[(4S)-2,2,4-trimethylpyrrolidin-1-yl]pyridine-3-carboxamide based)
Parameter: Ent. A Max Activity (%)

Cc1cccc(C)c1-c1cc2nc(n1)NS(=O)(=O)c1cccc(c1)C(=O)N1CCN(C(=O)OC(C)(C)C)CC(C1)O2 (stereo not drawn) ... +++ (+++ is >60%)
Cc1cccc(C)c1-c1cc2nc(n1)NS(=O)(=O)c1cccc(c1)C(=O)N1CCN(CCCC(C)(C)C)C[C@@H]1CO2 ... +++ (+++ is >60%)

====

target: CFTR-mediated chloride transport in human intestinal epithelial enteroid cells (Homo sapiens, UniProt P13569); assay: Membrane potential dye, Enteroid Assay A; type: cell-based; details: Enteroid Assay A; read-out: Ent. A EC50
Sequence (P13569 with tags, fused parts or gaps DEL508-508): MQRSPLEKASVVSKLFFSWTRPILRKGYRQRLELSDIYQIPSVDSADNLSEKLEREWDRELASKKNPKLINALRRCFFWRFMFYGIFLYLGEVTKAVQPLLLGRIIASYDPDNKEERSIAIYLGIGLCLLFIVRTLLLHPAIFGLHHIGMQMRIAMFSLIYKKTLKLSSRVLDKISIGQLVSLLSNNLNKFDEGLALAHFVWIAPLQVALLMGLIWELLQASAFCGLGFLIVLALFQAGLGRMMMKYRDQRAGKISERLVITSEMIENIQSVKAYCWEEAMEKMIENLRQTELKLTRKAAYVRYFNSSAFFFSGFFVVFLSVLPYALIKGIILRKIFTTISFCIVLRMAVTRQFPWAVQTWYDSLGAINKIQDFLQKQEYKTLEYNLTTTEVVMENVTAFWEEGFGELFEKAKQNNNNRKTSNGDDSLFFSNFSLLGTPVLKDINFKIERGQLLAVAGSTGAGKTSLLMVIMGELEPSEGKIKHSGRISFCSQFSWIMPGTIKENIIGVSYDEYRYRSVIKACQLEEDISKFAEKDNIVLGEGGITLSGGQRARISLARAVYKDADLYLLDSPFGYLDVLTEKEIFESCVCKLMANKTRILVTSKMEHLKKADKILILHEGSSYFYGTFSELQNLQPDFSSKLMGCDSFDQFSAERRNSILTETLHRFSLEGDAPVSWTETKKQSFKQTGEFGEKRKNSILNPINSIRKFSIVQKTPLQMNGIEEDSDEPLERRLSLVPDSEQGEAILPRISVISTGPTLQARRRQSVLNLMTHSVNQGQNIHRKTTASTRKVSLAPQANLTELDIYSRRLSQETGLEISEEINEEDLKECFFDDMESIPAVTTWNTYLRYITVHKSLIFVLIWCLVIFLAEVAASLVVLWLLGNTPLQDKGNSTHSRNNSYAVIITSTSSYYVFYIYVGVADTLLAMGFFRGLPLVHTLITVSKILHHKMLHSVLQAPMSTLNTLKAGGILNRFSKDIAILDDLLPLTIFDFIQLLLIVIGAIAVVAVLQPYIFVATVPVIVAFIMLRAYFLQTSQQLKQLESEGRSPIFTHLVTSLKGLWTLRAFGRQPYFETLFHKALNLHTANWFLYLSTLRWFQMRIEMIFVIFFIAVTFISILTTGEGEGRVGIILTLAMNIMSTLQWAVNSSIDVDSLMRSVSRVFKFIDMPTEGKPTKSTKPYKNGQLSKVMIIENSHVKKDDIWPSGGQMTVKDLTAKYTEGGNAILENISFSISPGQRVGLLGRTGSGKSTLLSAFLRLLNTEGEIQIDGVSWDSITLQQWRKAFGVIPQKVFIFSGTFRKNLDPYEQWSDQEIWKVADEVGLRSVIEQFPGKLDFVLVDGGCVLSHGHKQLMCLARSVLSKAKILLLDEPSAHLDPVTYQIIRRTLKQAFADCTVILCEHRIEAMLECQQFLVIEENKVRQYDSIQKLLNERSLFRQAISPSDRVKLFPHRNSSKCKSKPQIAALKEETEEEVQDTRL
pEC50: −log10 of the molar value.
Parameter: pEC50

Cc1cccc(C)c1-c1cc2nc(n1)NS(=O)(=O)c1cccc(c1)C(=O)N1CC3CN(Cc4ccccc4)CC3(C1)O2 (centres unmarked) ... > 6.00

query: Which pEC50 is listed for Cc1cccc(C)c1-c1cc2nc(n1)NS(=O)(=O)c1cccc(c1)C(=O)N1C[C@@H](CN(C(=O)OC(C)(C)C)C[C@H]1CC(C)C)O2 ?
result: > 6.00

query: Which pEC50 is listed for Cc1cccc(C)c1-c1cc2nc(n1)NS(=N)(=O)c1cccc(c1)C(=O)N1CCN(Cc3ccccc3)CC(C1)O2 (centres unmarked) [Compound 246] ?
result: 5.52 to 6.00

query: Which pEC50 is listed for Cc1cccc(C)c1-c1cc2nc(n1)NS(=O)(=O)c1cccc(c1)C(=O)N1CC(CCCO2)CC1(C)C (centres unmarked) ?
result: 4.52 to 5.52

====

biological target: CFTR-mediated chloride transport in human intestinal epithelial enteroid cells (Homo sapiens); assay: Membrane potential dye, Enteroid Assay A; assay type: cell-based; settings: enteroid cells incubated with test compound 18-24 hours; acute 10 μM forskolin and 300 nM N-[2,4-bis(1,1-dimethylethyl)-5-hydroxyphenyl]-1,4-dihydro-4-oxoquinoline-3-carboxamide; read-out: Ent. A EC50
pEC50: −log10 of the molar value.
Listed compounds paired with reported pEC50

Known pEC50 results, listed for orientation:
Cc1cccc(C)c1-c1cc2nc(n1)NS(=O)(=O)c1cccc(c1)NC(=O)[C@@H]1CNCCN1c1cccc(c1)O2 [Compound 334] ... 5.52 to 6.00
Cc1cccc(C)c1-c1cc2nc(n1)NS(=O)(=O)c1cccc(c1)C(=O)N1CCN(CCC3CCOCC3)CC(C1)O2 (stereo not shown) [Compound 60] ... 4.52 to 5.52
Cc1cccc(C)c1-c1cc2nc(n1)NS(=O)(=O)c1cccc(c1)C(=O)N1CCC(O2)c2ccccc2C1 (stereo not shown) [Compound 227] ... > 6.00
Cc1cccc(C)c1-c1cc2nc(n1)NS(=O)(=O)c1cccc(c1)C(=O)N1CCN(CC3CCOCC3)CC(C1)O2 (stereo not shown) [Compound 55] ... 4.52 to 5.52
Cc1cccc(C)c1-c1cc2nc(n1)NS(=O)(=O)c1cccc(c1)C(=O)N1CCN(C(=O)CC3CCCCC3)C[C@@H]1CO2 [Compound 255] ... > 6.00
Cc1cccc(C)c1-c1cc2nc(n1)NS(=O)(=O)c1cccc(c1)C(=O)N1CCC(c3ccccc3)C(C1)O2 (stereo not shown) [Compound 317] ... > 6.00

Consider the record given below.
query: Which pEC50 is listed for Cc1ccc(CN2CCN3C(=O)c4cccc(c4)S(=O)(=O)Nc4nc(cc(-c5c(C)cccc5C)n4)OC[C@H]3C2)cn1 [Compound 274] ?
result: 4.52 to 5.52
